target: VIPR2 (Homo sapiens); experiment: Inhibition of VIP-induced cAMP elevation (% Activity cAMP); assay type: cell-based; set-up: expressed in transfected cells; host or cells: HEK293 cells transfected with VIPR2 in pCDNA3.1 (as described); details: 0.5 μM, Batch 2
READOUT NAME: inhibition at 0.5 µM (%)

NC(=O)[C@@H](Cc1ccccc1)C[C@H](O)CNS(=O)(=O)c1ccc([N+](=O)[O-])cc1 [Compound B12B] = 14.6
C#CCNC(=O)[C@H](Cc1ccccc1)C[C@H](O)CNS(=O)(=O)c1ccc([N+](=O)[O-])cc1 [Compound B21A] = 5.4
O=C(NCc1ccc(F)cc1F)[C@H](Cc1ccccc1)C[C@H](O)CNS(=O)(=O)c1ccc([N+](=O)[O-])cc1 [Compound B14A] = 2.4
O=C(N[C@H]1c2ccccc2C[C@H]1O)[C@H](Cc1ccccc1)C[C@H](O)CNS(=O)(=O)c1ccc([N+](=O)[O-])cc1 [Compound A27, reference compound] = 38.7

====

Entries annotated with measured inhibition at 1 µM
molecular target: VIPR2 (Homo sapiens, UniProt P41587); test: Inhibition of VIP-induced cAMP elevation (% Activity cAMP); format: cell-based; parameters: expressed in transfected cells; host or cells: HEK293 cells transfected with VIPR2 in pCDNA3.1 (as described); conditions: 1 μM, Batch 2
READOUT NAME: inhibition at 1 µM (%)

CCCCNC(=O)[C@H](Cc1ccccc1)C[C@H](O)CNS(=O)(=O)c1ccc([N+](=O)[O-])cc1 [Compound B7A] = 5.1
NC(=O)[C@@H](Cc1ccccc1)C[C@H](O)CNS(=O)(=O)c1ccc([N+](=O)[O-])cc1 [Compound B12B] = 12.6
O=C([C@H](Cc1ccccc1)C[C@H](O)CNS(=O)(=O)c1ccc([N+](=O)[O-])cc1)N1CCOCC1 [Compound B9A] = -1.6
O=C([C@@H](Cc1ccccc1)C[C@H](O)CNS(=O)(=O)c1ccc([N+](=O)[O-])cc1)N1CCOCC1 [Compound B9B] = 10.4
O=C(NCc1ccccc1)[C@@H](Cc1ccccc1)C[C@H](O)CNS(=O)(=O)c1ccc([N+](=O)[O-])cc1 [Compound B3B] = 1.5

====

Reported inhibition at 5 µM values for a set of molecules
biological target: VIPR2 (Homo sapiens, UniProt P41587); assay: Inhibition of VIP-induced β-arrestin recruitment (% Activity Arrestin); assay type: cell-based; design: expressed in transfected cells; host or cells: HEK293 cells transfected with VIPR2 in pCDNA3.1 (as described); conditions: 5 μM, Batch 2
READOUT NAME: inhibition at 5 µM (%)

O=C([C@H](Cc1ccccc1)C[C@H](O)CNS(=O)(=O)c1ccc([N+](=O)[O-])cc1)N1CCC(CO)CC1 = -4.5
O=C(N[C@H]1c2ccccc2C[C@H]1O)[C@H](Cc1ccccc1)C[C@H](O)CNS(=O)(=O)c1ccc([N+](=O)[O-])cc1 [Compound A27, reference compound] = 92
O=C(NC1CCCC1)[C@@H](Cc1ccccc1)C[C@H](O)CNS(=O)(=O)c1ccc([N+](=O)[O-])cc1 = 1.3
O=C(NC1CCCCCC1)[C@@H](Cc1ccccc1)C[C@H](O)CNS(=O)(=O)c1ccc([N+](=O)[O-])cc1 = 6.8
O=C([C@H](Cc1ccccc1)C[C@H](O)CNS(=O)(=O)c1ccc([N+](=O)[O-])cc1)N1CCOCC1 = -1.2
CCCCNC(=O)[C@H](Cc1ccccc1)C[C@H](O)CNS(=O)(=O)c1ccc([N+](=O)[O-])cc1 = 13.8

====

target: UniProtKB P41587; assay: Inhibition of VIP-induced cAMP elevation (% Activity cAMP); type: cell-based; design: expressed in transfected cells; host or cells: HEK293 cells transfected with VIPR2 in pCDNA3.1 (as described); conditions: 5 μM, Batch 2
READOUT NAME: inhibition at 5 µM (%)

CC1CCC(NC(=O)[C@@H](Cc2ccccc2)C[C@H](O)CNS(=O)(=O)c2ccc([N+](=O)[O-])cc2)CC1 (stereo partly drawn) = 5.1
O=C(NC1Cc2ccccc2C1)[C@H](Cc1ccccc1)C[C@H](O)CNS(=O)(=O)c1ccc([N+](=O)[O-])cc1 = 16
NC(=O)[C@H](Cc1ccccc1)C[C@H](O)CNS(=O)(=O)c1ccc([N+](=O)[O-])cc1 [Compound B12A] = 2.1

====

biological target: UniProtKB P41587; assay: Inhibition of VIP-induced β-arrestin recruitment (% Activity Arrestin); assay type: cell-based; set-up: expressed in transfected cells; host or cells: HEK293 cells transfected with VIPR2 in pCDNA3.1 (as described); details: 5 μM, Batch 1
# inhibition at 5 µM per entry
READOUT NAME: inhibition at 5 µM (%)

CC(C)c1cc(C(C)C)c(S(=O)(=O)NC[C@@H](O)C[C@@H](Cc2ccccc2)C(=O)N[C@H]2c3ccccc3C[C@H]2O)c(C(C)C)c1 = 8.3
COc1ccc(S(=O)(=O)NC[C@@H](O)C[C@@H](Cc2ccccc2)C(=O)N[C@H]2c3ccccc3C[C@H]2O)cc1 = 89.4
O=C(NC[C@@H](O)C[C@@H](Cc1ccccc1)C(=O)N[C@H]1c2ccccc2C[C@H]1O)c1ccc2ccccc2c1 = 9.7
Cc1ccc([N+](=O)[O-])cc1S(=O)(=O)NC[C@@H](O)C[C@@H](Cc1ccccc1)C(=O)N[C@H]1c2ccccc2C[C@H]1O = -0.6
O=C(NC[C@@H](O)C[C@@H](Cc1ccccc1)C(=O)N[C@H]1c2ccccc2C[C@H]1O)c1cccc(CCl)c1 = -10.3
O=C(NC[C@@H](O)C[C@@H](Cc1ccccc1)C(=O)N[C@H]1c2ccccc2C[C@H]1O)c1ccccc1[N+](=O)[O-] = 26.1
O=C(NC[C@@H](O)C[C@@H](Cc1ccccc1)C(=O)N[C@H]1c2ccccc2C[C@H]1O)C1CC1 = 29.1
O=C(N[C@H]1c2ccccc2C[C@H]1O)[C@H](Cc1ccccc1)C[C@H](O)CNS(=O)(=O)c1ccc(C(F)(F)F)cc1 = 92.9
COc1cc(C(=O)NC[C@@H](O)C[C@@H](Cc2ccccc2)C(=O)N[C@H]2c3ccccc3C[C@H]2O)cc(OC)c1OC = 18
CC(C)(C)c1ccc(C(=O)NC[C@@H](O)C[C@@H](Cc2ccccc2)C(=O)N[C@H]2c3ccccc3C[C@H]2O)cc1 = 7.8
O=C(N[C@H]1c2ccccc2C[C@H]1O)[C@H](Cc1ccccc1)C[C@H](O)CNS(=O)(=O)c1cccc([N+](=O)[O-])c1 = 33.4
O=C(N[C@H]1c2ccccc2C[C@H]1O)[C@H](Cc1ccccc1)C[C@H](O)CNS(=O)(=O)c1ccc([N+](=O)[O-])cc1 [Compound A27, reference compound] = 88.7
CC(C)CS(=O)(=O)NC[C@@H](O)C[C@@H](Cc1ccccc1)C(=O)N[C@H]1c2ccccc2C[C@H]1O = 20
O=C(NC[C@@H](O)C[C@@H](Cc1ccccc1)C(=O)N[C@H]1c2ccccc2C[C@H]1O)c1cccc(Br)c1 = 5.2
CC(C)(C)c1ccc(S(=O)(=O)NC[C@@H](O)C[C@@H](Cc2ccccc2)C(=O)N[C@H]2c3ccccc3C[C@H]2O)cc1 [A, reference compound] = 56.7
O=C(NC[C@@H](O)C[C@@H](Cc1ccccc1)C(=O)N[C@H]1c2ccccc2C[C@H]1O)c1cccc([N+](=O)[O-])c1 = -4
C#CCCCC(=O)NC[C@@H](O)C[C@@H](Cc1ccccc1)C(=O)N[C@H]1c2ccccc2C[C@H]1O = 25.8
O=C(NC[C@@H](O)C[C@@H](Cc1ccccc1)C(=O)N[C@H]1c2ccccc2C[C@H]1O)c1ccc([N+](=O)[O-])cc1 = 16.4

====

target: VIPR2 (Homo sapiens); assay: % Activity: inhibition of VIP-induced cAMP elevation and β-arrestin recruitment (Table 2); type: cell-based; parameters: expressed in transfected cells; host or cells: HEK293 cells transfected with VIPR2 in pCDNA3.1 (as described)
In this section, each of the compounds is paired with its reported % Activity.
READOUT NAME: % Activity (%)

CC(C)Nc1ccc(S(=O)(=O)NC[C@@H](O)C[C@@H](Cc2ccccc2)C(=O)N[C@H]2c3ccccc3C[C@H]2O)cc1 = 16.2
O=C(NCc1ccccc1)c1ccc(S(=O)(=O)NC[C@@H](O)C[C@@H](Cc2ccccc2)C(=O)N[C@H]2c3ccccc3C[C@H]2O)cc1 = 41.4
CCC(=O)Nc1ccc(S(=O)(=O)NC[C@@H](O)C[C@@H](Cc2ccccc2)C(=O)N[C@H]2c3ccccc3C[C@H]2O)cc1 = 8.25

====

Biological target: VIPR2 (Homo sapiens, UniProt P41587)
Sequence (P41587 24-438): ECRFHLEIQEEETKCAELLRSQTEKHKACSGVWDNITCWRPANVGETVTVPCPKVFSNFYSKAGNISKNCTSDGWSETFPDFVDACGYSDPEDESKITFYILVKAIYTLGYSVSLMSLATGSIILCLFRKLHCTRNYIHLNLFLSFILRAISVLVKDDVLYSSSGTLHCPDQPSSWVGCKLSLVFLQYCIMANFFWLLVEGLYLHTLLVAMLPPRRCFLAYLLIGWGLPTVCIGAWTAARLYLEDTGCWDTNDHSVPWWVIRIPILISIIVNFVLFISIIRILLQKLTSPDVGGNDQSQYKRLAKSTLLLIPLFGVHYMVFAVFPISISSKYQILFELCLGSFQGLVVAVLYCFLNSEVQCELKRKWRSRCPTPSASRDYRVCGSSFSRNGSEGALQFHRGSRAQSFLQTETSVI
Experiment: % Activity: inhibition of VIP-induced cAMP elevation and β-arrestin recruitment (Table 2)
Format: cell-based
Set-up: expressed in transfected cells; host or cells: HEK293 cells transfected with VIPR2 in pCDNA3.1 (as described)
Catalogue of compounds with associated % Activity
READOUT NAME: % Activity

O=C(NC1CCCC1)[C@@H](Cc1ccccc1)C[C@H](O)CNS(=O)(=O)c1ccc([N+](=O)[O-])cc1 [Compound B1B] = 0.5%
O=C([C@@H](Cc1ccccc1)C[C@H](O)CNS(=O)(=O)c1ccc([N+](=O)[O-])cc1)N1CCOCC1 [Compound B9B] = 1.65%
CC(=O)Nc1ccc(S(=O)(=O)NC[C@@H](O)C[C@@H](Cc2ccccc2)C(=O)N[C@H]2c3ccccc3C[C@H]2O)cc1 [Compound X088] = 11.65%
CC(=O)Nc1ccc(S(=O)(=O)NC[C@H](C[C@@H](Cc2ccccc2)C(=O)N[C@H]2c3ccccc3C[C@H]2OC(C)=O)OC(C)=O)cc1 [Compound X090] = 1.95%
Cc1cc(S(=O)(=O)NC[C@@H](O)C[C@@H](Cc2ccccc2)C(=O)N[C@H]2c3ccccc3C[C@H]2O)c(C)cc1Cl [Compound A3] = 20.85%
CC(C)(C)c1ccc(C(=O)NC[C@@H](O)C[C@@H](Cc2ccccc2)C(=O)N[C@H]2c3ccccc3C[C@H]2O)cc1 [Compound A26] = 15.5%
O=C(NC1CCCC1)[C@H](Cc1ccccc1)C[C@H](O)CNS(=O)(=O)c1ccc([N+](=O)[O-])cc1 [Compound B1A] = 6.95%
O=C(NN1CCCCC1)[C@@H](Cc1ccccc1)C[C@H](O)CNS(=O)(=O)c1ccc([N+](=O)[O-])cc1 [Compound B6B] = 5.35%
CCCCNC(=O)[C@H](Cc1ccccc1)C[C@H](O)CNS(=O)(=O)c1ccc([N+](=O)[O-])cc1 [Compound B7A] = 9.55%
O=C(NC[C@@H](O)C[C@@H](Cc1ccccc1)C(=O)N[C@H]1c2ccccc2C[C@H]1O)c1cccc(Br)c1 [Q] = 12.75%
C#CCCCC(=O)NC[C@@H](O)C[C@@H](Cc1ccccc1)C(=O)N[C@H]1c2ccccc2C[C@H]1O [Compound A23] = 26.2%
O=C(NC[C@@H](O)C[C@@H](Cc1ccccc1)C(=O)N[C@H]1c2ccccc2C[C@H]1O)C1CCCCCC1 [Compound A8] = 13.75%
O=C(NC[C@@H](O)C[C@@H](Cc1ccccc1)C(=O)N[C@H]1c2ccccc2C[C@H]1O)c1c(Cl)cc(Cl)cc1Cl [D] = 21.9%
